TEST_CONDITIONS: in n-propanol, 294.47 K
ENDPOINT: solubility (mole fraction)
Give bare numbers.

**Q:** Recorded solubility (mole fraction) of "O=C(O)c1ccccc1" , please.
**A:** 0.164

###

TEST_CONDITIONS: in 2-butanone, 289.86 K
ENDPOINT: solubility (mole fraction)
One number for each entry.

**Q:** Recorded solubility (mole fraction) of "O=C(O)c1ccccc1" , please.
**A:** 0.166

###

TEST_CONDITIONS: in n-propanol, 293.16 K
ENDPOINT: solubility (mole fraction)
Give bare numbers.

**Q:** Recorded solubility (mole fraction) of "CC(=O)Oc1ccccc1C(=O)O" , please.
**A:** 0.0354

###

TEST_CONDITIONS: in ethyl acetate, 296.16 K
ENDPOINT: solubility (mole fraction)
One number for each entry.

**Q:** Recorded solubility (mole fraction) of "CC(=O)Oc1ccccc1C(=O)O" , please.
**A:** 0.0313

###

TEST_CONDITIONS: in isopropyl acetate, 283.74 K
ENDPOINT: solubility (mole fraction)
Give bare numbers.

**Q:** Recorded solubility (mole fraction) of "O=C(O)c1ccccc1" , please.
**A:** 0.105

###

TEST_CONDITIONS: in isobutyl acetate, 300.25 K
ENDPOINT: solubility (mole fraction)

**Q:** Recorded solubility (mole fraction) of "CC(=O)Oc1ccccc1C(=O)O" , please.
**A:** 0.0247

###

TEST_CONDITIONS: in 2-butanone, 295.54 K
ENDPOINT: solubility (mole fraction)
Numbers only.

**Q:** Recorded solubility (mole fraction) of "O=C(O)c1ccccc1" , please.
**A:** 0.186

###

TEST_CONDITIONS: in n-butanol, 301.66 K
ENDPOINT: solubility (mole fraction)
Answers are plain numbers.

**Q:** Recorded solubility (mole fraction) of "CC(=O)Oc1ccccc1C(=O)O" , please.
**A:** 0.044

###

TEST_CONDITIONS: in MIBK, 298.25 K
ENDPOINT: solubility (mole fraction)

**Q:** Recorded solubility (mole fraction) of "O=C(O)c1ccccc1" , please.
**A:** 0.175

###

TEST_CONDITIONS: in isobutyl acetate, 313.56 K
ENDPOINT: solubility (mole fraction)
Answers are plain numbers.

**Q:** Recorded solubility (mole fraction) of "CC(=O)Oc1ccccc1C(=O)O" , please.
**A:** 0.0376

###

TEST_CONDITIONS: in n-propanol, 279.06 K
ENDPOINT: solubility (mole fraction)
One number for each entry.

**Q:** Recorded solubility (mole fraction) of "O=C(O)c1ccccc1" , please.
**A:** 0.119

###

TEST_CONDITIONS: in ethyl acetate, 279.67 K
ENDPOINT: solubility (mole fraction)
Answers are plain numbers.

**Q:** Recorded solubility (mole fraction) of "O=C(O)c1ccccc1" , please.
**A:** 0.105

###

TEST_CONDITIONS: in n-butanol, 281.92 K
ENDPOINT: solubility (mole fraction)
Answers are plain numbers.

**Q:** Recorded solubility (mole fraction) of "O=C(O)c1ccccc1" , please.
**A:** 0.13

###

TEST_CONDITIONS: in n-butanol, 321.9 K
ENDPOINT: solubility (mole fraction)
Give bare numbers.

**Q:** Recorded solubility (mole fraction) of "O=C(O)c1ccccc1" , please.
**A:** 0.279
